- Test system: Plasmodium falciparum
- test_method_notes: Primary screen in NF54 nanoGlo assay, in single point, at 2uM, 72h
- Assay type: functional, Erythrocyte
- protocol_conditions: timepoint 72 hour
Out of some 150,000 compounds screened, about 540 (0.36%) showed an effect of 50% or more. The sample holds strong results, similar compounds and a random draw of the others, so the mix is not that of the screen.
Label T for high-side Z score (at or above -0.6) and F for low-side Z score (below it).

# cpd_smiles, answer_label
records = [
    ("COc1ccccc1C(=O)NC1=NN2C(=NC(c3ccc(Cl)cc3)=C[C@H]2c2ccc(Cl)cc2)N1", "F"),
    ("CCC(=O)NC1=NN2C(=NC(c3ccc(Cl)cc3)=C[C@H]2c2ccc(F)cc2)N1", "F"),
    ("O=C(NC1=NN2C(=NC(c3ccc(Cl)cc3)=C[C@H]2c2ccc(F)cc2)N1)c1ccc(Cl)cc1", "F"),
    ("COc1ccc(CC(=O)N2CC3(C[C@H](N4CCCCC4)CO3)C2)cc1", "T"),
    ("O=C(c1ccncc1F)N1CCCC[C@@H]1CCc1ccccn1", "T"),
]

====

- Tested on: Plasmodium falciparum
- test_method_notes: Primary screen in NF54 nanoGlo assay, in single point, at 2uM, 72h
- Type: functional, Erythrocyte
- protocol_conditions: timepoint 72 hour
Hit rate of the full screen: of about 150,000 compounds, about 540 (0.36%) showed an effect of 50% or more. What follows is part of a selection rich in strong results, with near analogues and random picks from the rest.
Quick rule for you: Z score under 0.3 gets True, anything else gets False.

# compound, answer_label
measured = [
    ("CCOc1ccc(Nc2c3ccccc3nc3ccccc23)cc1", "True"),
    ("CCOc1ccc(NC(=O)Cc2c(O)nc3ccccc3c2O)cc1", "False"),
    ("Cc1ccccc1Cn1cnc2c1c(=O)n(C1CCCC1)c(=O)n2-c1ccccc1", "False"),
    ("Cc1ccccc1-n1c(=O)n(C2CCCCC2)c(=O)c2c1ncn2Cc1ccccc1", "True"),
    ("CC(C)=CC1C(C(=O)N(C)CC2COc3ccccc3O2)C1(C)C (stereo unspecified)", "False"),
]

====

- System: Plasmodium falciparum
- test_method_notes: Primary screen in NF54 nanoGlo assay, in single point, at 2uM, 72h
- Format: functional, Erythrocyte
- protocol_conditions: timepoint 72 hour
Out of some 150,000 compounds screened, about 540 (0.36%) showed an effect of 50% or more. The sample as a whole holds a higher share of strong results than the screen did.
property: % Inhibition (%)

# compound, endpoint_result
rows = [
    ("COc1nc(NCC[C@H]2CCCCN2C)ncc1F", 3),
    ("NC(=NCc1csc2ccccc12)N1CCN(c2nccs2)CC1", 5),
    ("O=C(N[C@H]1CCc2[nH]c3ccc(Br)cc3c2C1)c1ccc(Cl)c(Cl)c1", -9),
    ("Cc1cccc(OCC(O)CNC2C3CCCOC3C2(C)C)c1 (stereo unspecified)", -10),
    ("CC1(C)C(NCC(O)COc2ccc(F)c(F)c2)[C@@H]2CCC[C@@H]21 (stereo partly specified)", 61),
    ("O=S(=O)(c1ccc(Cl)s1)N1CCc2nc(-c3ccc(Cl)cc3)ncc2C1", -11),
    ("O=C(NC1CCc2[nH]cnc2C1)N[C@@H]1CCCc2ccccc21 (stereo partly specified)", 4),
    ("COc1nc(NC[C@H]2CCCN2C(C)C)ncc1F", 64),
    ("CC1C(C(F)(F)F)OCCN1C(=O)NC1CCCC1Cc1ccccn1 (stereo unspecified)", -4),
    ("COc1cccc([C@H]2C[C@H](N(C)C(=O)CCCC(F)(F)F)C2)c1", 5),
    ("NC(=NCc1ccc(Cl)cn1)N1CCN(c2nccs2)CC1", -4),
]

====

- System: Plasmodium falciparum
- test_method_notes: Primary screen in NF54 nanoGlo assay, in single point, at 2uM, 72h
- Type: functional, Erythrocyte
- protocol_conditions: timepoint 72 hour
About 540 (0.36%) of roughly 150,000 compounds showed an effect of 50% or more. The list comes from a sample in which strong results are over-represented; it also holds close analogues and randomly drawn compounds.
Z score values, listed per item

# cpd_smiles, Z score
data = [
    ("O=C(CCn1nc2ccccn2c1=O)Nc1cnccc1Nc1ccc(F)cc1", 4.76),
    ("COc1ccc(CCc2nc(NC(=O)c3nc(C)sc3C)n[nH]2)cc1OC", -9.67),
    ("N[C@H]1CCOc2ccc(Br)cc2C1=O", 1.05),
    ("Cn1cccc1CNc1nnc([C@@H]2CCCO2)o1", 0.81),
    ("COc1ccc(CCc2nc(NC(=O)[C@H]3CC(=O)N(C)C3)n[nH]2)cc1OC", -2.27),
    ("Cc1oc(-c2cccc(F)c2)[n+]([O-])c1C", -0.64),
    ("CCOC(=O)N1CCCC[C@H](NC2CCN(c3ccc(F)c(F)c3)CC2)C1", -0.83),
    ("COc1ccc(CCc2nc(NC(=O)C(C)C)n[nH]2)cc1OC", -1.63),
    ("Cc1nonc1CN1CC[C@@]2(CCCN(C3CCCCC3)C2=O)C1", 0.17),
    ("O=C(NCCN1CCC[C@H](CO)C1)c1cccc(-c2ccc3occc3c2)c1", 0.37),
    ("O=C(NCCN1CCC(CO)CC1)N1CC(Oc2ccccc2F)C1", 1.55),
]

====

- Test system: Plasmodium falciparum
- test_method_notes: Primary screen in NF54 nanoGlo assay, in single point, at 2uM, 72h
- Format: functional, Erythrocyte
- protocol_conditions: timepoint 72 hour
The whole screen tested about 150,000 compounds, of which about 540 (0.36%) showed an effect of 50% or more. The sample holds strong results, similar compounds and a random draw of the others, so the mix is not that of the screen.
Label 1 for high-side Z score (at or above -0.4) and -1 for low-side Z score (below it).

# compound, target_of_assay, answer_label
measured = [
    ("Cc1nn(C2CCCC2)c2nc(-c3cccs3)[nH]c12", "Plasmodium falciparum", 1),
    ("Cc1cc(C)cc(NC(=O)C23CCC(C)(C(=O)C2=O)C3(C)C)c1 (stereo not given)", "Plasmodium falciparum", -1),
    ("O=C(Nc1cnc(-n2ccnc2)nc1)c1ccc(F)cc1", "Plasmodium falciparum", 1),
    ("O=C(N[C@@H]1CC[C@H]2CCOc3ccccc3C(=O)N3CCN(C4CCC(F)(F)CC4)C[C@H]3C(=O)NC[C@H]1O2)C1CCOCC1", "Plasmodium falciparum", -1),
    ("Cn1ncc(Cl)c1C(=O)NCc1cccnc1Oc1ccc(F)c(F)c1", "Plasmodium falciparum", 1),
    ("Cc1nn(C)c(Cl)c1-c1nc2c([nH]1)c(C)nn2C1CCCCC1", "Plasmodium falciparum", 1),
    ("Cc1nn(C2CCCC2)c2nc(-c3cc(CN(C)C)cs3)[nH]c12", "Plasmodium falciparum", -1),
    ("CCCCCc1nc([C@H](C)N2CCN(C)CC2)n(-c2cc(C)ccn2)n1", "Plasmodium falciparum", 1),
    ("C=C1C(C)(C)[C@@H]2CC[C@@]1(C(=O)N1CCn3c(C(N)=O)cnc3C1)C2", "Plasmodium falciparum", 1),
    ("C[C@@H](CN1CCOCC1)NC(=O)c1cccc2c1C(=O)OC2(C)C", "Plasmodium falciparum", 1),
]

====

- System: Plasmodium falciparum
- test_method_notes: Primary screen in NF54 nanoGlo assay, in single point, at 2uM, 72h
- Assay type: functional, Erythrocyte
- protocol_conditions: timepoint 72 hour
Screen size: about 150,000 compounds; about 540 (0.36%) showed an effect of 50% or more. The list comes from a sample in which strong results are over-represented; it also holds close analogues and randomly drawn compounds.
% Inhibition values, listed per item

# molecule, % Inhibition
data = [
    ("CC1(C)CN(C(=O)c2c(O)cnc3c(F)cccc23)C1C1CCCO1 (configuration not stated)", "-4%"),
    ("CC(C)c1nc(C(=O)Nc2[nH]c(=O)ncc2F)cs1", "88%"),
    ("CCOC[C@@H](O)CN(Cc1c(-c2ccccc2)noc1N1CCC(C)CC1)CC1CC1", "35%"),
    ("Cc1csc(NC(=O)c2cc(-c3ccccc3)on2)n1", "-6%"),
    ("COc1ccc(Br)c(S(=O)(=O)NCC2(C)CCC2)c1", "1%"),
    ("CCc1ccccc1S(=O)(=O)NC[C@H](C(=O)O)C(C)C", "2%"),
    ("Cc1nn(-c2ccccc2Cl)c(O)c1C(c1ccsc1)c1c(C)nn(-c2ccccc2Cl)c1O", "6%"),
    ("COc1cccc(CN2C(=O)c3cc4ccc(OC)cc4n3C[C@@]2(C)C(=O)NC2CCCCCC2)c1", "-12%"),
    ("Cc1nn(-c2nc3ccccc3s2)c(O)c1C(c1ccc(Cl)c(Cl)c1)c1c(C)nn(-c2nc3ccccc3s2)c1O", "-10%"),
    ("Cc1nnc(CN2CCC[C@H](c3nc(C(C)C)cs3)C2)s1", "-8%"),
    ("C[C@@H](C(=O)Nc1nccs1)N1CCCC1", "-4%"),
    ("C#CCOCC(O)CN(Cc1c(-c2ccccc2)noc1N1CCC(C)CC1)CC1CCCO1 (configuration not stated)", "59%"),
    ("O=C(c1cnn(Cc2ccccc2)c1)N1CCC[C@@H]1CO", "5%"),
    ("Cc1nn(-c2ccccn2)c(O)c1C(c1ccccc1)c1c(C)nn(-c2ccccn2)c1O", "96%"),
    ("Cc1cc(C)c2c(c1)N(C(=O)Cc1cnccc1C)CCO2", "-7%"),
    ("Cc1ccc2c(C(=O)N3CCCCC3)cc(-c3cncnc3)nc2c1C", "3%"),
    ("CC(C(=O)Nc1nccs1)N1CCCC(c2ccn[nH]2)C1 (configuration not stated)", "50%"),
    ("COc1ccc2cc3n(c2c1)C[C@@](C)(C(=O)NC1CCCCCC1)N(CCN1CCCCCC1)C3=O", "2%"),
    ("CCc1nc(O)c(C(=O)N2CCOc3cc(F)c(F)cc32)cc1C", "-5%"),
    ("CC(C(=O)Nc1ccc(Cl)cn1)N1CCCC(c2ccn[nH]2)C1 (configuration not stated)", "5%"),
    ("Cc1cccc(CN2CCN(C(=O)c3cc(C)nc(N)n3)[C@@H](C)C2=O)c1", "-2%"),
    ("Cc1n[nH]c(C(=O)N2CCCCCC2)c1Br", "3%"),
]

Values compiled from ChEMBL document CHEMBL4888484.
